target: Toll-like receptor 7 (Homo sapiens, UniProt Q9NYK1); test: Agonist activity at human TLR7 expressed in HEK293 cells co-expressing secreted alkaline phosphatase assessed as induction of NF-kappaB/AP-1 promoter activity by measuring increase in secreted alkaline phosphatase level by spectrophotometric method; assay type: cell-based
pEC50: recorded values
Scale for pEC50: -log10 of concentration given in mol/L; no unit attached.

Would you please look over these solved cases?
SMILES_NOTATION	TEST_VALUE
CCCCNc1nc(N)nc(C)c1CCCC1CCCCC1	5.96
CCCCNc1nc(N)nc(C)c1CCCn1cncn1	5.94
CCCCNc1nc(N)nc(C)c1C	5.47

Kindly review the next compound as well.
Data request: Look up pEC50 with Toll-like receptor 7 (Homo sapiens, UniProt Q9NYK1) for this compound: CCCCNc1nc(N)nc(C)c1CCCn1ccc2ccccc21
Data returned: 6.85

====

Biological target: Toll-like receptor 8 (Homo sapiens) (UniProt Q9NR97)
Sequence (whole entry): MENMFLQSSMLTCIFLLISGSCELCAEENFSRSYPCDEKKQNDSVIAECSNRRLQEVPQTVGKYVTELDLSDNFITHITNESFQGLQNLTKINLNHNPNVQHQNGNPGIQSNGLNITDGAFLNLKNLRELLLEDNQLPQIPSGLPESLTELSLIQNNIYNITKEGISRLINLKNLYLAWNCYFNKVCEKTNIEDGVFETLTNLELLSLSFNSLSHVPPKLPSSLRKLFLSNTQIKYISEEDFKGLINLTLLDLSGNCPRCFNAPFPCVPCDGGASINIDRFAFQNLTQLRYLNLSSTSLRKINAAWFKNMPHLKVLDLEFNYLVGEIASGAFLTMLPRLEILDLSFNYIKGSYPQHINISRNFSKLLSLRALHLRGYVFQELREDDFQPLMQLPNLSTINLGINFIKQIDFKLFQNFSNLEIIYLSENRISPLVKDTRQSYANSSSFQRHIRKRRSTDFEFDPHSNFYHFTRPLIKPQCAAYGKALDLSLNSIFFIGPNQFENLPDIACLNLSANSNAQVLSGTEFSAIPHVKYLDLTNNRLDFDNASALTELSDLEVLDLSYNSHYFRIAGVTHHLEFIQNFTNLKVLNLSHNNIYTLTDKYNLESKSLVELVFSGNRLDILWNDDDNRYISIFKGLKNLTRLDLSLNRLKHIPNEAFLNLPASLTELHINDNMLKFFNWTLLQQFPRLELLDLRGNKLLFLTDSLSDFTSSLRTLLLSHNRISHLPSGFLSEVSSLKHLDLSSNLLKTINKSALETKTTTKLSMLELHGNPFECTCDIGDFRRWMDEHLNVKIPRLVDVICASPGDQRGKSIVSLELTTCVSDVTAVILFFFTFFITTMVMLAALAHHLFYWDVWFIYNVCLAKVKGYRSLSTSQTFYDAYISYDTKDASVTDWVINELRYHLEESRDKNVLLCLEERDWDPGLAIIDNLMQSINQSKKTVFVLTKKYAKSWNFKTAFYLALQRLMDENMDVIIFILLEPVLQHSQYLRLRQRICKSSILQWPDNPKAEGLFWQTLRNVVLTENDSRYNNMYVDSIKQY
Assay: Agonist activity at TLR8 in human PBMC assessed as induction of IFN-gamma production after 16 hrs by multiplexed immunoassay
Activity calls are given as the source filed them. The rule behind the calls is not given here.
Valid outcomes are listed here; reply with one: TRUE = active, FALSE = inactive

Completed entries (count: 2):
SMILES_NOTATION	ASSIGNED_CLASS
CCCCNc1nc(N)nc(C)c1CCCN1CCCCC1	TRUE
CCCCNc1nc(N)nc(C)c1CCCN1Cc2ccccc2C1	TRUE

Data request: Please share the test call associated with CCCCNc1nc(N)nc(C)c1CCCc1ccccc1 .
Data returned: FALSE

Data request: What call does the record list for CCCCNc1nc(N)nc(C)c1CCCn1c(C)nc2ccccc21 ?
Data returned: TRUE

====

Reported log10 EC50 is given for each of the following molecules.
molecular target: Toll-like receptor 8 (Homo sapiens, UniProt Q9NR97); assay: Agonist activity at human TLR8 expressed in HEK293 cells co-expressing secreted alkaline phosphatase assessed as induction of NF-kappaB/AP-1 promoter activity by measuring increase in secreted alkaline phosphatase level by spectrophotometric method; assay type: cell-based
Values below are the log10 of the recorded EC50, with nM as the unit.

Here's what some known entries look like.
SMILES_NOTATION	MEASURE	TEST_VALUE
CCCCNc1nc(N)nc(C)c1CCCn1c(C)nc2ccccc21	log10 EC50	2.56
CCCCNc1nc(N)nc(C)c1CCCN1CCSCC1	log10 EC50	2.22
CCCCNc1nc(N)nc(C)c1CCCN1CCOCC1	log10 EC50	2.45
CCCCNc1nc(N)nc(C)c1CCCN1CCN(C)CC1	log10 EC50	2.25
CCCCNc1nc(N)nc(C)c1CC	log10 EC50	3.22
CCCCNc1nc(N)nc(C)c1CCCN(C)CCOC	log10 EC50	2.31
CCCCNc1nc(N)nc(C)c1CCCN(CC)CC	log10 EC50	2.40
CCCCNc1nc(N)nc(C)c1CCCN1CCN(C(=O)OC(C)(C)C)CC1	log10 EC50	2.48

Data request: Entry CCCCNc1nc(N)nc(C)c1CCCc1ccccc1 : reported log10 EC50 = ?
Data returned: 2.87

Data request: Name the reported log10 EC50 value associated with the molecule CCCCNc1nc(N)nc(C)c1CCCN1CCCC1
Data returned: 2.04

Data request: Fill in the blank: the reported log10 EC50 of CCCCNc1nc(N)nc(C)c1CCCCCc1ccccc1 is ____.
Data returned: 2.92

Data request: Requested read-out: log10 EC50. Entry: CCCCNc1nc(N)nc(C)c1CCCN1C(=O)c2ccccc2C1=O
Data returned: 2.66

Data request: log10 EC50 lookup needed for CCCCNc1nc(N)nc(C)c1C , thanks.
Data returned: 3.52

Data request: Give the measured log10 EC50 of CCCCNc1nc(N)nc(C)c1CCc1ccccc1 .
Data returned: 3.08

Data request: Consider the molecule shown here: CCCCNc1nc(N)nc(C)c1CCCN1CCN(c2ccccc2)CC1 What is its recorded log10 EC50?
Data returned: 1.96

====

Target: Toll-like receptor 7 (Homo sapiens, UniProt Q9NYK1)
Sequence (Q9NYK1 whole entry): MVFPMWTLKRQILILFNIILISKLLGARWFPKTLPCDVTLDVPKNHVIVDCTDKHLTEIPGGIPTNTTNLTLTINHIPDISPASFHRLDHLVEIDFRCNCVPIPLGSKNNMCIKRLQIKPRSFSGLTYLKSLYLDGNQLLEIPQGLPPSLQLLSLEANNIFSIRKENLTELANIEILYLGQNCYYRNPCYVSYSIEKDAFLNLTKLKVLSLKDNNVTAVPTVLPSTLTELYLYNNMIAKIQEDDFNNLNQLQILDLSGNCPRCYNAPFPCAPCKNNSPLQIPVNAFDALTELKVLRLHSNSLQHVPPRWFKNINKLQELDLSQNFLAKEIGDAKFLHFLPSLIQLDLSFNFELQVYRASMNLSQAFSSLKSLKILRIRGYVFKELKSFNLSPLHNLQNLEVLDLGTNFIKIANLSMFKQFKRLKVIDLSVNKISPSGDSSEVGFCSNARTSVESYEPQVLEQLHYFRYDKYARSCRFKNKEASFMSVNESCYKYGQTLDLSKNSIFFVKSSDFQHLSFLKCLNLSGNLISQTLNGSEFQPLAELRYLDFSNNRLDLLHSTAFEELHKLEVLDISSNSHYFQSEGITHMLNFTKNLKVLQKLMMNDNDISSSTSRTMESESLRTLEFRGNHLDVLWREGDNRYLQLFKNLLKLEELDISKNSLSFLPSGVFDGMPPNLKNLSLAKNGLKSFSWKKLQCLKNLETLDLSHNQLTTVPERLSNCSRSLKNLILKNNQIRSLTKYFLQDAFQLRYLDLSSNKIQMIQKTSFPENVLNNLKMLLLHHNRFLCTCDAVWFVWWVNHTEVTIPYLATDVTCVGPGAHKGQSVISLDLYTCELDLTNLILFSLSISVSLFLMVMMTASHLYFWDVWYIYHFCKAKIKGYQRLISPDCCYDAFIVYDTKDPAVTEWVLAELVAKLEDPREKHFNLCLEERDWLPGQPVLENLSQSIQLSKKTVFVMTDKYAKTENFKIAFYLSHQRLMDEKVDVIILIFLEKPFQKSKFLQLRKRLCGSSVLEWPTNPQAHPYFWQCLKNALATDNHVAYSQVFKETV
Assay: Agonist activity at human TLR7 expressed in HEK293 cells co-expressing secreted alkaline phosphatase assessed as induction of NF-kappaB/AP-1 promoter activity by measuring increase in secreted alkaline phosphatase level by spectrophotometric method
Listed molecules paired with reported log10(EC50)
For clarity, the numbers are log10 values of EC50 expressed in nM.

Use the examples below as a reference point.
SMILES_NOTATION	ASSAYED_TARGET	log10(EC50)
CCCCNc1nc(N)nc(C)c1CCCN1CCNCC1	Toll-like receptor 7 (Homo sapiens, UniProt Q9NYK1)	3.21
CCCCNc1nc(N)nc(C)c1CCCN(C)CCOC	Toll-like receptor 7 (Homo sapiens, UniProt Q9NYK1)	3.09
CCCCNc1nc(N)nc(C)c1CCCN1CCOCC1	Toll-like receptor 7 (Homo sapiens, UniProt Q9NYK1)	1.66
CCCCNc1nc(N)nc(C)c1CCCCN1CCOCC1	Toll-like receptor 7 (Homo sapiens, UniProt Q9NYK1)	3.15
CCCCNc1nc(N)nc(C)c1CCCCO	Toll-like receptor 7 (Homo sapiens, UniProt Q9NYK1)	3.01

Data request: What log10(EC50) value was documented for this molecule, CCCCNc1nc(N)nc(C)c1CCCN1CCSCC1 ?
Data returned: 2.85

Data request: // query log10(EC50) value for entry CCCCNc1nc(N)nc(C)c1CCCn1c(C)nc2ccccc21
Data returned: 2.58

Data request: # input molecule: CCCCNc1nc(N)nc(C)c1CCCN1Cc2ccccc2C1 ; wanted: its log10(EC50)
Data returned: 2.57

Data request: Quick one: log10(EC50) of CCCCNc1nc(N)nc(C)c1CCCc1ccccc1 ?
Data returned: 2.29
